# tested-system: human TRPV1 receptor (hTRPV1) (Homo sapiens, UniProt Q8NER1)
# Sequence (Q8NER1 whole entry): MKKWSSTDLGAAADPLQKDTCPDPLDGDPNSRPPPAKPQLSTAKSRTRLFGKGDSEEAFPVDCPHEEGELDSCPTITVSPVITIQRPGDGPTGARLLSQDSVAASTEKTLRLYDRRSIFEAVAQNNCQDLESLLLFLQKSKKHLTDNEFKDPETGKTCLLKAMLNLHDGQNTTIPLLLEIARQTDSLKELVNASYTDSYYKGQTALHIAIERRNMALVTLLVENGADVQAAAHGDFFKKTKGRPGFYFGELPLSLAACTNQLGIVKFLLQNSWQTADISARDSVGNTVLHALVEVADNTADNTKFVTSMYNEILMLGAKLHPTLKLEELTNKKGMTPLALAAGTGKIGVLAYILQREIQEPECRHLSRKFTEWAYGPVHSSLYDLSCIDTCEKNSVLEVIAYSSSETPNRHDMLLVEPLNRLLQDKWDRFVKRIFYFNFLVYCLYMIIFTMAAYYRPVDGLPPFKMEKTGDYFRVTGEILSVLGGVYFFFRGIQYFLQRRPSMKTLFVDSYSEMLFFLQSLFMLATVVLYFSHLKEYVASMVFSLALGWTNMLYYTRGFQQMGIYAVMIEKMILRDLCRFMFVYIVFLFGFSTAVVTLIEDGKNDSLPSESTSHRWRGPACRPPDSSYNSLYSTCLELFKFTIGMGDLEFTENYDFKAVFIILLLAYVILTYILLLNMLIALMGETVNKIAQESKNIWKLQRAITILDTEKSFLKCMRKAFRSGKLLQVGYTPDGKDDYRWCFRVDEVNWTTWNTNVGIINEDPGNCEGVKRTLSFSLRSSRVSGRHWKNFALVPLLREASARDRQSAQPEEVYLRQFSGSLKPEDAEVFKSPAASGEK
# test-protocol: Capsaicin activation assay (Ca2+ influx, FLIPR)
# study-conditions: hTRPV1 in 1321N1 cells, 0.05 μM capsaicin
quantity-kind: IC50 (nM)
Answer with a number only, understood to be in nM.

Examples with answers:
{"columns": ["smiles-representation", "IC50 [nM]"],
 "data": [
  ["CCC1(CC)C[C@@H](NC(=O)Nc2cccc3c2cnn3C)c2cccc(F)c2O1", 35],
  ["CC1(C)C[C@@H](NC(=O)Nc2cccc3cnccc23)c2ccc(F)cc2O1", 6]
]}

Input: Item under review: Cc1cc2c(NC(=O)N[C@@H]3CC(C)(C)Oc4cc(F)ccc43)c(F)ccc2cn1 . Reported IC50?
Output: 27

Input: Using the record for Cc1cc2c(NC(=O)N[C@@H]3CC(C)(C)Oc4c(OC(F)(F)F)cccc43)cccc2cn1 , report its IC50.
Output: 9

Input: For the compound Cc1cc2c(NC(=O)N[C@@H]3CC(CF)(CF)Oc4cc(F)ccc43)cccc2cn1 , what IC50 is on record?
Output: 15

----------
# tested-system: human TRPV1 receptor (hTRPV1) (Homo sapiens)
# test-protocol: Capsaicin activation assay (Ca2+ influx, FLIPR)
# study-conditions: hTRPV1 in 1321N1 cells, 0.05 μM capsaicin
# Description: Dulbecco's modified Eagle medium (D-MEM) (with 4.5 mg/mL glucose) and fetal bovine serum were obtained from Hyclone Laboratories, Inc. (Logan, Utah). […] The functional activity of compounds at the TRPV1 receptor was determined with a Ca^2+ influx assay and measurement of intracellular Ca^2+ levels ([Ca^2+]i). […] Washing of the cells was performed to remove extracellular Fluo-4 AM (2×1 mL D-PBS per well), and afterward, the cells were placed in the reading chamber of the FLIPR instrument. […]
quantity-kind: pIC50
Answer as the number alone; pIC50 is minus log10 of concentration in mol/L.

Study these solved cases before continuing.
{"columns": ["compound", "result-value"],
 "data": [
  ["Cc1cc2c(NC(=O)N[C@@H]3CC(C)(C)Oc4cc(Cl)ccc43)cccc2cn1 [Example 97]", 8.15],
  ["CCC1(CC)C[C@@H](NC(=O)Nc2cccc3c(C)nccc23)c2cc(F)ccc2O1 [Example 86]", 8.00]
]}

Input: Given the compound Cc1cc2c(NC(=O)N[C@@H]3CC(CF)(CF)Oc4cc(Br)ccc43)cccc2cn1 [Example 102] , what is its reported pIC50?
Output: 7.85
